- protocol: Inhibition of FTase
// reported pIC50 for each item listed
quantity: pIC50

N#Cc1ccc(COCc2cncn2Cc2ccc(Cl)cc2)c(-c2ccc3c(c2)OCO3)c1
8.08
N#Cc1ccc(COCc2cncn2Cc2ccc(C#N)nc2)c(-c2cccc(Cl)c2)c1
8.52
N#Cc1ccc(Cn2cncc2COCc2cnc(C#N)cc2-c2cccc(Cl)c2)cc1
8.37
CCOc1ccc(-c2cc(C#N)ccc2COCc2cncn2Cc2ccc(C#N)cc2)cc1
8.9
N#Cc1ccc(COCc2cncn2Cc2ccc(C#N)cc2-c2cccc3ccccc23)c(-c2ccc3c(c2)OCO3)c1
8.17
N#Cc1ccc(Cn2cncc2COCc2ccc(C#N)cc2-c2ccc(OC(F)(F)F)cc2)cc1
9.19
N#Cc1ccc(Cn2cncc2COCc2ccc(C#N)cc2-c2cccc(OC(F)(F)F)c2)cc1
9.31
N#Cc1ccc(COCc2cncn2Cc2ccc(C#N)cc2-c2cccc(Cl)c2)c(-c2cccc(Cl)c2)c1
8
N#Cc1ccc(Cn2cncc2COCc2ccc(C#N)cc2-c2cccc3ccccc23)cc1
8.89

====

- protocol: Inhibition of FTase
quantity: pIC50

Cn1c(=O)cc(-c2cccc(Cl)c2)c2cc(C(O)c3cncn3Cc3ccc(C#N)cc3)ccc21 (stereo not given)
7.33
COc1cccc(-c2cc(C#N)ccc2COCc2cncn2Cc2ccc(Cl)cc2)c1
8.66
N#Cc1ccc(OCc2cncn2Cc2ccc(C#N)c(-c3cccc4ccccc34)c2)nc1
9.05
N#Cc1ccc(Cn2cncc2COc2ccc(Cl)cc2-c2cccc(Cl)c2)cc1
8.4
Cc1ccc(-c2cc(C#N)ccc2COCc2cncn2Cc2ccc(C#N)cc2)cc1C
9.22

====

- protocol: Inhibition of FTase
Tag: YES if measured pIC50 is not below 9, NO if it is.

N#Cc1ccc(Cn2cncc2COCc2ccc(C#N)cc2-c2cccc(Cl)c2)cc1
YES
COc1cccc(-c2cc(C#N)ccc2COCc2cncn2Cc2ccc(C#N)cn2)c1
NO
COc1ccc(-c2cc(C#N)ccc2COCc2cncn2Cc2ccc(C#N)cc2)cn1
NO
CC(C)(C)c1ccc(-c2cc(C#N)ccc2COCc2cncn2Cc2ccc(C#N)cc2)cc1
YES
N#Cc1ccc(Cn2cncc2COCc2ccc(C#N)cc2-c2ccc3c(c2)OCO3)nc1
NO
N#Cc1ccc(Cn2cncc2COc2ccc(C#N)c(-c3cccc4ccccc34)c2)cc1
YES
N#Cc1ccc(COCc2cncn2Cc2ccc(C#N)nc2)c(-c2ccc3c(c2)OCO3)c1
NO
Cn1c(=O)cc(-c2cccc(Cl)c2)c2cc(COCc3cncn3Cc3ccc(C#N)cc3)ccc21
NO
CC(=O)Nc1cccc(-c2cc(C#N)ccc2COCc2cncn2Cc2ccc(C#N)cc2)c1
NO

====

- protocol: Inhibition of FTase
quantity: pIC50

N#Cc1ccc(Cn2cncc2COCc2ccc(C#N)cc2-c2ccc(Cl)c(Cl)c2)cc1
9.43
Cn1c(=O)cc(-c2cccc(Cl)c2)c2cc(C(=O)c3cncn3Cc3ccc(C#N)cc3)ccc21
7.54
N#Cc1ccc(Cn2cncc2COCc2ccc(C#N)cc2-c2ccc(C(F)(F)F)cc2)cc1
8.37
CS(=O)(=O)c1ccc(Cn2cncc2COCc2ccc(C#N)cc2-c2cccc(Cl)c2)cc1
7.02
CCOc1cccc(-c2cc(C#N)ccc2COCc2cncn2Cc2ccc(C#N)nc2)c1
9.24
Cn1c(=O)cc(-c2cccc(Cl)c2)c2cc(C(NC=O)c3cncn3Cc3ccc(C#N)cc3)ccc21 (stereo unspecified)
8.68

====

// reported pIC50 for each item listed
- protocol: Inhibition of FTase
quantity: pIC50

CCOc1cccc(-c2cc(C#N)ccc2COCc2cncn2Cc2ccc(Cl)cc2)c1
8.85
N#Cc1ccc(Cn2cncc2COCc2ccc(C#N)cc2-c2ccc3ccccc3c2)cc1
9.04
N#Cc1ccc(COCc2cncn2Cc2ccc(C#N)cc2-c2cccc3ccccc23)cc1
9.02
N#Cc1ccc(Cn2cncc2COCc2ccc(C#N)cc2-c2cccc3c2OCO3)cc1
9.09
CC(=O)c1ccc(-c2cc(C#N)ccc2COCc2cncn2Cc2ccc(C#N)cc2)cc1
8.89
N#Cc1ccc(Cn2cncc2Cn2cc(C#N)c(-c3cccc4ccccc34)c2)cc1
9.24
COc1cccc(-c2cc(C#N)ccc2COCc2cncn2Cc2ccc(C#N)nc2)c1
8.82
